Biological target: Sonic hedgehog protein (Homo sapiens) (UniProt Q15465)
Sequence (Q15465 24-197 limits assumed): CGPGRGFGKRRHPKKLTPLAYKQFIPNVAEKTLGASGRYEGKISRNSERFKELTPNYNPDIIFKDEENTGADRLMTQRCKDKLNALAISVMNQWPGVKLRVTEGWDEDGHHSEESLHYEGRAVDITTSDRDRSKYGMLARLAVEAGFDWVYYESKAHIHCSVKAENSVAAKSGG
Assay: Activation of Shh pathway in human foreskin fibroblasts assessed as increase in VEGF expression at 0.1 to 1 uM after 48 hrs by ELISA relative to control
quantity measured: fold change (FC)
Answer field: number only, no words.

# value of fold change (FC), Sonic hedgehog protein (Homo sapiens) (UniProt Q15465), item CN[C@H]1CC[C@H](N(Cc2cccc(-c3ccncc3)c2)C(=O)c2sc3ccccc3c2Cl)CC1 = 7

# value of fold change (FC), Sonic hedgehog protein (Homo sapiens) (UniProt Q15465), item CN[C@H]1CC[C@H](N(Cc2cccc(-c3ccncc3)c2)C(=O)c2sc3cc(F)ccc3c2Cl)CC1 = 7

# value of fold change (FC), Sonic hedgehog protein (Homo sapiens) (UniProt Q15465), item CN[C@H]1CC[C@H](N(Cc2cccc(-c3ccncc3)c2)C(=O)c2sc3cccc(Cl)c3c2Cl)CC1 = 7

# value of fold change (FC), Sonic hedgehog protein (Homo sapiens) (UniProt Q15465), item CN[C@H]1CC[C@@H](N(Cc2cccc(-c3ccncc3)c2)C(=O)c2sc3ccccc3c2Cl)CC1 = 7

----------
Assay: Ratio of compound IC50 to SAG IC50 for HUVEC
Assay type: ADME, cell-based
Conditions: human, HUVEC cells; read-out: Ratio IC50
quantity measured: selectivity ratio
Answer field: number only, no words.

The value of selectivity ratio measured for the molecule CN[C@H]1CC[C@H](N(Cc2cccc(-c3ccncc3)c2)C(=O)c2sc3cccc(Cl)c3c2Cl)CC1 turned out to be 10

The origin of these recorded values is ChEMBL document CHEMBL2157999.
